Test system: A549 NSCLC
Test: NCI tumour cell line growth inhibition, 48 h
RESULT_TYPE: TGI

Sample answers from the record:
COc1ccc(C2C3CCc4ccccc4C3=NN2S(=O)(=O)c2cccc(C(=O)O)c2OC)cc1 (stereo not given): > 100 µM
Cc1sc2nc3n(c(=O)c2c1C)N=CN(c1ccc(Cl)cc1)C3: > 100 µM
COc1cc(-c2nn(-c3cccc(NC(=O)CCN4CCN(c5ccccc5)CC4)c3)cc2-c2ccncc2)ccc1Cl: > 100 µM
COc1cc(OC)c2c(=O)c3cccc(C)c3n(C)c2c1: > 100 µM
O=C1NCN(c2ccccc2)C12CCN(CC1COc3ccccc3O1)CC2 (stereo not given): > 100 µM
CN1CC[C@H](c2c(O)cc(O)c3c(=O)cc(-c4ccccc4Cl)oc23)[C@H](O)C1: > 10 µM
COc1cccc(C23CCN(C)C(CC(O)C2)C3)c1OC (stereo not given): > 100 µM
COc1ccc(-c2c(N)noc2-c2cc(OC)c3c(c2)OCCO3)cc1: > 41.6 µM
COc1cc(NC2CCCCC2O)c2nc(-c3ccc(Cl)cc3)ccc2c1 (stereo not given): > 100 µM
Cn1nnc2c3c(N(CCO)CCO)ccnc3ccc21: > 100 µM

Record summary for "Cc1cc(C)nc(NS(=O)(=O)c2ccc(Nc3c4ccccc4nc4c(C(=O)NCCN(C)C)cccc34)cc2)n1" : reported TGI = 16.1 µM

Record summary for C[C@@H]1CC[C@H]2[C@H](C)C(OC3O[C@@H]4O[C@@]5(C)CC[C@H]6[C@H](C)CC[C@@H]([C@@H]3C)[C@@]46O5)O[C@@H]3O[C@@]4(C)CC[C@@H]1[C@]32O4 (stereo not given in full) : reported TGI = > 100 µM

###

The following compounds are listed with their measured TGI values.
Test system: HS 578T breast
Experiment: NCI tumour cell line growth inhibition, 48 h

Sample answers from the record:
COc1cc(/C=C2\SC(N3CCCCC3)=NC2=O)ccc1OCCCCCCOc1ccc(/C=C2\SC(N3CCCCC3)=NC2=O)cc1OC: 25.7 µM
O=C(Cn1c2ccc(Br)cc2c2nc3ccccc3nc21)Nc1ccccc1: 76.9 µM
Oc1ccccc1C=Nc1ccc(-c2nc3ccccc3s2)cc1: > 100 µM
C=C1C(=O)O[C@H]2C1C[C@H](O)[C@@]1(C)OC1CC[C@@]1(C)O[C@H]21 (stereo partly specified): > 100 µM

Record summary for "CCOc1ccc(NC(=O)C(=O)Nn2c(N)nnc2N)cc1" : reported TGI = > 100 µM

Record summary for COC(=O)C(=O)C(C(=O)C(=O)Nc1ccc(C)cc1C)c1nc2ccc(Cl)cc2[nH]c1=O (stereo unspecified) : reported TGI = > 100 µM

Record summary for "CN(CCc1ccccn1)c1ccc2c(c1)C(=O)c1ccccc1-2" : reported TGI = > 100 µM

Record summary for CC1(C)C2CCC13C(=O)C1OC3(C2)C2C(=O)c3c(ccc4c3ccc3ccccc34)C(=O)C12 (stereo unspecified) : reported TGI = > 100 µM

Record summary for "Cn1nnc2c3c(N(CCO)CCO)ccnc3ccc21" : reported TGI = > 100 µM

Record summary for "O=C(Nc1ccccc1)OCCN=C1c2ccccc2CCc2ccccc21" : reported TGI = 51.5 µM

Record summary for "CCOC(=O)c1c(CN2CCN(C)CC2)nc2ccc(Cl)cc2c1-c1ccccc1" : reported TGI = 23.1 µM

###

Tested on: SK-MEL-28 melanoma
Assay: NCI tumour cell line growth inhibition, 48 h; in the data active = GI50 below about 0.43 µM; inactive = the rest
Could you please pick one outcome from this set? T = active, F = inactive

The following compounds have reported results that may help.
CCOC(=O)c1c(CN2CCN(C)CC2)nc2ccc(Cl)cc2c1-c1ccccc1: F
Cn1cnnc1[S-].[Au+].c1ccc([PH+](c2ccccc2)c2ccccc2)cc1: F
COc1cc(/C=C2\SC(N3CCCCC3)=NC2=O)ccc1OCCCCCCOc1ccc(/C=C2\SC(N3CCCCC3)=NC2=O)cc1OC: F
C=CC(=O)Nc1cc2c(Nc3ccc(F)c(Cl)c3)ncnc2cc1C#CC(C)(C)N1CCN(C)CC1: F
C[As](C)SC1OCC(O)C(O)C1O (stereo unspecified): T
CCOc1ccc2cc(-c3nn(CC4CCNCC4)c4ncnc(N)c34)ccc2c1: F
COCC(C(=O)OC1C/C=C/C=C/C(=O)OC(C(C)C(O)C(C)CCC(OC(=O)C(C)N(C)C)C(C)C(OC(C)=O)C(C)/C=C/N(C)C=O)C/C=C/C(OC)CC(C)C/C=C(\C)C(OC)CCC(C)C(O)C1C)N(C)C (stereo unspecified): T
CN(C)c1ccc(-c2ccc(-c3ccc(C(=N)N)cn3)o2)cc1: F

Asked: For "C=C1C[C@@H]2O[C@H]3[C@H]4[C@@H](CC[C@@](C)(OC(=O)CCC)[C@H]42)[C@@H](C)C(=O)O[C@@]3(C)CC[C@H]1OO" , which call appears in the assay record?
Given back: F

###

System: KM12 colon
Assay: NCI tumour cell line growth inhibition, 48 h
RESULT_TYPE: TGI

Sample answers from the record:
COC(=O)c1c(O)ccc2c1c1c(n2Cc2cc(OC)cc(OC)c2)C(=O)c2ccccc2C1=O: 13.6 µM
OCC(O)C(O)C(O)C(O)c1nnc2c(-c3ccccc3)nc3ccccc3n12 (stereo not given): > 100 µM
O=[N+]([O-])/C=C/c1ccc(Cl)cc1[N+](=O)[O-]: > 100 µM
N#[N+]c1ccc(Nc2ccccc2)cc1: > 50 µg/mL

Record summary for "Cc1ccc(C(=O)Oc2ccccc2)cc1N=NN(C)C" : reported TGI = > 100 µM

Record summary for "C[C@@H]1CCc2ncc(F)cc2[C@H]2CCCN2c2ccn3ncc(c3n2)C(=O)N1" : reported TGI = > 100 µM

Record summary for "CC(C)(C)O/N=C/c1cc(NC(=S)c2ccsc2)ccc1Cl" : reported TGI = 23.3 µM

Record summary for "COC(=O)c1c(O)ccc2c1c1cc3ccccc3c(O)c1n2CCc1ccc(OC)c(OC)c1" : reported TGI = > 100 µM

Record summary for "Cc1cc(C)nc(NS(=O)(=O)c2ccc(Nc3c4ccccc4nc4c(C(=O)NCCN(C)C)cccc34)cc2)n1" : reported TGI = 18.4 µM

Record summary for C[C@H]1CC[P+](C)(c2ccccc2)C1 (stereo not given in full) : reported TGI = > 100 µM

###

Test system: NCI-H460 lung
Experiment: NCI tumour cell line growth inhibition, 48 h
The following compounds are listed with their measured TGI values.

Sample answers from the record:
COC(=O)C(=O)Nc1cc2c3c(c1)Oc1cccc4c1C3(C)c1c(cccc1O2)O4: > 100 µM
O=C(O)c1ccccc1NCn1c(=S)sc2ccccc21: 48.5 µM
CCOc1nc2c(N3CCCC3)nc(N3CCNCC3)nc2nc1NCc1ccccc1: 2.91 µM
O=C(NCCN1CCCCC1)c1cccc(I)c1: > 100 µM
C=CCN1CCC(c2cc(C(=O)OCC)[nH]c2-c2cc(C)no2)C1=O (stereo unspecified): > 100 µM

Shift focus to the following entry.
Record summary for CCOC1Oc2ccc(C)cc2C(=O)/C1=C\Nc1ccc(S(N)(=O)=O)cc1 (stereo unspecified) : reported TGI = > 50 µM

###

The following compounds are listed with their measured TGI values.
System: UO-31 renal
Test: NCI tumour cell line growth inhibition, 48 h

Sample answers from the record:
O=[N+]([O-])/C(Cl)=C(/C(Cl)=C(Cl)Cl)N1CCOCC1: 12.8 µM
CC(=O)Oc1cc2cnc3c4cc(OC(C)=O)c(OC(C)=O)cc4ccc3c2cc1OC(C)=O: > 100 µM
O=[N+]([O-])c1cccc2nccc(NCCN3CCOCC3)c12: > 100 µM
C=C1CC[C@H]2C(C)=CC[C@H]3C(=C)C(=O)O[C@@H]3[C@@H]12: > 100 µM
Cc1cn(C2CC(N=[N+]=[N-])C(COP(=O)(O)OCC3OC(n4cc(F)c(=O)[nH]c4=O)CC3O)O2)c(=O)[nH]c1=O (centres undefined): > 100 µM
CCCCC1(C(NC(=O)c2ccccc2Cl)c2ccncc2)C(=O)N(c2ccccc2)N(c2ccccc2)C1=O (centres undefined): > 100 µM
NC1=NCN(C2OC(CO)C(O)C2O)C(=O)N1 (centres undefined): 872 µM
Cc1ccc(-c2cc(-c3ccccc3)c(C#N)c(=O)[nH]2)cc1: > 100 µM

Record summary for CCOC(=O)CCC(NC(=O)c1ccc(NC(OC)c2nc3cc(C(F)(F)F)ccc3nc2-c2ccccc2)cc1)C(=O)OCC (centres undefined) : reported TGI = 26.8 µM

###

System: PC-3 prostate
Test: NCI tumour cell line growth inhibition, 48 h
RESULT_TYPE: TGI

CC1(C)N=C(N)N=C(N)N1c1cccc(CCc2ccccc2)c1: > 59 µM
CN(N=O)c1nc2c(C(N)=O)ncn2s1: > 100 µM

Record summary for "COc1cccc(-c2nc3sccn3c2-c2ccnc(NCCCNS(=O)(=O)c3ccccc3)c2)c1" : reported TGI = 6.3 µM

Record summary for "Cc1ccc(-c2cc(-c3ccc(Cl)cc3)nc(/N=C3\C(=O)N(CN(C)C)c4ccccc43)n2)cc1" : reported TGI = > 100 µM

Record summary for "COc1ccc(-c2cc(/C=C/C(=O)c3ccc(N)cc3)[nH]n2)cc1" : reported TGI = 10.1 µM

Record summary for "O=CNc1ccccc1OCCOc1ccccc1NC=O" : reported TGI = > 100 µM

Record summary for COc1ccc(C2C3CCc4ccccc4C3=NN2S(=O)(=O)c2cccc(C(=O)O)c2OC)cc1 (stereo unspecified) : reported TGI = > 100 µM
